These entries and their values trace back to PubChem BioAssay (Tox21).

- assay notes: qHTS assay to identify aromatase inhibitors - cell viability counter screen (AID 743084);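 further: cells stimulated with testosterone during compound exposure; nearly all actives have a fitted effect of over 55% in size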
- condition summary: MCF-7 aro ERE viability, CellTiter-Fluor, 24 h; series mostly up to 70.3 µM
Results filed as inconclusive are left out. Active and inactive are the calls of the source. The call rests on the fitted dose curve; in most records, active means well fitted cell-killing curve with a large enough effect in the repeat runs; inconclusive means weak or mixed curves, or effect the other way; inactive means no such curve, though single readings can be large or run the other way.
Please answer using one outcome listed in y for active, n for inactive

Query: Identify the outcome logged in this assay for the compound shown: C=C[C@](C)(O)CC[C@@H]1[C@@]2(C)CCCC(C)(C)[C@@H]2CC[C@@]1(C)O
Response: y

Query: Identify the outcome logged in this assay for the compound shown: C[C@H]1O[C@@H](O[C@H]2[C@@H](O)C[C@H](O[C@H]3[C@@H](O)C[C@H](O[C@H]4CC[C@@]5(C)[C@H](CC[C@@H]6[C@@H]5C[C@@H](O)[C@]5(C)[C@@H](C7=CC(=O)OC7)CC[C@]65O)C4)O[C@@H]3C)O[C@@H]2C)C[C@H](O)[C@@H]1O
Response: n

Query: Identify the outcome logged in this assay for the compound shown: S=C(SSSSSSC(=S)N1CCCCC1)N1CCCCC1
Response: y

Query: Identify the outcome logged in this assay for the compound shown: S=P(N1CC1)(N1CC1)N1CC1
Response: n

Query: Identify the outcome logged in this assay for the compound shown: CCCCCCCC/C=C/CCCOC(C)=O
Response: n
